Recorded values, source patent US6844443B2.

Provide the recorded inhibition at 0.1 µM for the entries that follow.
Molecular target: A II receptor (Bos taurus, UniProt P25104)
Construct: An A II receptor membrane fraction was prepared from bovine adrenal cortex; from tissue; host or cells: bovine adrenal cortex membrane fraction
Sequence (P25104 whole entry): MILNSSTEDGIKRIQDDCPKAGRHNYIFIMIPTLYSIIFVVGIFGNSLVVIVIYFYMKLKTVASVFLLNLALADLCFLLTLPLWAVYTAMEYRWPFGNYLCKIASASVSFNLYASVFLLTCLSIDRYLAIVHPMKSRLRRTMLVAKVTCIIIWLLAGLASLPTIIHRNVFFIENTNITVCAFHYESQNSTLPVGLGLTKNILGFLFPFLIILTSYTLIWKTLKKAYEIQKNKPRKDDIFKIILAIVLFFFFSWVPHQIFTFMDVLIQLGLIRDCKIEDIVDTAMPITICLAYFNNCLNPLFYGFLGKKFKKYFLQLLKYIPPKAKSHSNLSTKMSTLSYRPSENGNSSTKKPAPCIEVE
Experiment: Inhibition of binding of angiotensin II to angiotensin receptor (radioreceptor assay)
Design: species or system bovine
Settings: 1 h; read-out: Radioreceptor Assay 1 × 10^−7M
Please reply with the bare figure in % and do not write the unit itself.

Please fill in: inhibition at 0.1 µM reported for CSc1nc2cccc(C(=O)O)c2n1Cc1ccc(-c2ccccc2-c2nnn[nH]2)cc1 = 51

Please fill in: inhibition at 0.1 µM reported for CCOc1nc2cccc(C(=O)OCOC(=O)C(C)C)c2n1Cc1ccc(-c2ccccc2-c2nnn[nH]2)cc1 = 55

Please fill in: inhibition at 0.1 µM reported for CCOC(=O)OC(C)OC(=O)c1cccc2nc(OCC)n(Cc3ccc(-c4ccccc4-c4nnn[nH]4)cc3)c12 (stereo not shown) = 42

Please fill in: inhibition at 0.1 µM reported for CCCOc1nc2cccc(C(=O)OCC)c2n1Cc1ccc(-c2ccccc2-c2nnn[nH]2)cc1 = 16

Please fill in: inhibition at 0.1 µM reported for CCSc1nc2cccc(C(=O)O)c2n1Cc1ccc(-c2ccccc2-c2nnn[nH]2)cc1 = 41

Please fill in: inhibition at 0.1 µM reported for CCCOc1nc2cccc(C(=O)O)c2n1Cc1ccc(-c2ccccc2-c2nnn[nH]2)cc1 = 40

Please fill in: inhibition at 0.1 µM reported for CCOc1nc2cccc(C(=O)OC(C)OC(C)=O)c2n1Cc1ccc(-c2ccccc2-c2nnn[nH]2)cc1 (stereo not shown) = 63

Please fill in: inhibition at 0.1 µM reported for CNc1nc2cccc(C(=O)O)c2n1Cc1ccc(-c2ccccc2-c2nnn[nH]2)cc1 = 41

Please fill in: inhibition at 0.1 µM reported for CCCC(=O)OCOC(=O)c1cccc2nc(OCC)n(Cc3ccc(-c4ccccc4-c4nnn[nH]4)cc3)c12 = 48

Please fill in: inhibition at 0.1 µM reported for CCOc1nc2cccc(C(=O)O)c2n1Cc1ccc(-c2ccccc2-c2nnn[nH]2)cc1 = 61

---

Provide the recorded melting point for the entries that follow.

Please fill in: melting point reported for CCOc1nc2cccc(C(=O)OCOC(=O)/C=C/c3ccccc3)c2n1Cc1ccc(-c2ccccc2-c2nnn[nH]2)cc1 = 146 to 147 °C

Please fill in: melting point reported for CCOc1nc2cccc(C(=O)OCc3oc(=O)oc3C)c2n1Cc1ccc(-c2ccccc2-c2nnn[nH]2)cc1 = 122 to 125 °C (dec.)

Please fill in: melting point reported for CCOC(=O)OC(C)OC(=O)c1cccc2nc(OCC)n(Cc3ccc(-c4ccccc4-c4nnn[nH]4)cc3)c12 (stereo not drawn) = 85 to 87 °C

---

Provide the recorded inhibition at 1 µM for the entries that follow.
Target: A II receptor (Bos taurus, UniProt P25104)
Construct: An A II receptor membrane fraction was prepared from bovine adrenal cortex; from tissue; host or cells: bovine adrenal cortex membrane fraction
Experiment: Inhibition of binding of angiotensin II to angiotensin receptor (radioreceptor assay)
Design: species or system bovine
Details: 1 h; inhibition of 125I-A II binding; compound 1 × 10^−6M; bovine adrenal cortex membrane fraction
Procedure: An experiment of inhibition on the binding of angiotensin II (A II) to A II receptor was conducted by modifying the method of Douglas et al. [Endocrinology, 102, 685-696 (1978)]. An A II receptor membrane fraction was prepared from bovine adrenal cortex. The compound of the present invention (10 ^−6M or 10^−7M) and ^125I-angiotensin II (^125I-A II) (1.85 kBq/50 μl ) were added to the receptor membrane fraction, and the mixture was incubated at room temperature for one hour. […]
Please reply with the bare figure in % and do not write the unit itself.

Please fill in: inhibition at 1 µM reported for CSc1nc2cccc(C(=O)O)c2n1Cc1ccc(-c2ccccc2-c2nnn[nH]2)cc1 = 82

Please fill in: inhibition at 1 µM reported for CCOC(=O)c1cccc2nc(OCC)n(Cc3ccc(-c4ccccc4-c4nnn[nH]4)cc3)c12 = 82

Please fill in: inhibition at 1 µM reported for CNc1nc2cccc(C(=O)O)c2n1Cc1ccc(-c2ccccc2-c2nnn[nH]2)cc1 = 79

Please fill in: inhibition at 1 µM reported for CCOC(=O)OC(C)OC(=O)c1cccc2nc(OCC)n(Cc3ccc(-c4ccccc4-c4nnn[nH]4)cc3)c12 (stereo not shown) = 81
